assay: Apparent clearance during terminal phase in Sprague-Dawley rat at 20 mg/kg, po by LC-MS/MS analysis; type: ADME, organism-based; settings: in vivo, read-out: CLz/F (converted)
measuredQuantity: CL/F (mL/min/kg)
Give a bare numeral; the unit mL/min/kg is implied.

CL/F for `Cc1c(C(=O)Nc2ccc(Oc3ccnc(Nc4cccc(N5CCOCC5)c4)n3)cc2)c(=O)n(-c2ccccc2)n1C` ?
11

----------
experiment: Cmax in Sprague-Dawley rat at 4 mg/kg, iv by LC-MS/MS analysis; type: ADME, organism-based; parameters: route intravenous, dose 4 mg/kg; settings: in vivo
measuredQuantity: Cmax (ng/mL)
Dear colleague, please return just the value in ng/mL, with no unit written.

Item `Cc1c(C(=O)Nc2ccc(Oc3ccnc(Nc4cccc(N5CCOCC5)c4)n3)cc2)c(=O)n(-c2ccccc2)n1C` has what recorded Cmax?
2470

----------
experiment: Cmax in Sprague-Dawley rat at 20 mg/kg, po by LC-MS/MS analysis; format: ADME, organism-based; design: route oral, dose 20 mg/kg; conditions: in vivo
measuredQuantity: Cmax
Lab note: write values as number then unit, every time.

Which Cmax value is on record for `Cc1c(C(=O)Nc2ccc(Oc3ccnc(Nc4cccc(N5CCOCC5)c4)n3)cc2)c(=O)n(-c2ccccc2)n1C` ?
3.05 µg/mL

----------
assay: Tmax in Sprague-Dawley rat at 20 mg/kg, po by LC-MS/MS analysis; assay type: ADME, organism-based; conditions: in vivo
measuredQuantity: Tmax (h)
Give the number; h is assumed, so skip it.

What measured Tmax goes with `Cc1c(C(=O)Nc2ccc(Oc3ccnc(Nc4cccc(N5CCOCC5)c4)n3)cc2)c(=O)n(-c2ccccc2)n1C` ?
6

----------
test: AUC(0 to t) in Sprague-Dawley rat at 20 mg/kg, po by LC-MS/MS analysis; format: ADME, organism-based; set-up: dose 20 mg/kg; conditions: in vivo
measuredQuantity: AUC(0-t) (ng·h/mL)
A number alone suffices; assume ng·h/mL.

I'd like to know its AUC(0-t). The molecule in question is `Cc1c(C(=O)Nc2ccc(Oc3ccnc(Nc4cccc(N5CCOCC5)c4)n3)cc2)c(=O)n(-c2ccccc2)n1C`
19000

----------
experiment: Acute toxicity in ICR mouse assessed as animal survival at 1500 mg/kg, po measured on day 14 (reference value: 100%); format: organism-based; settings: in vivo, time 14 day
measuredQuantity: survival at 336 h (%)
Write the number in % without appending the unit.

Sample `Cc1c(C(=O)Nc2ccc(Oc3ccnc(Nc4cccc(N5CCOCC5)c4)n3)cc2)c(=O)n(-c2ccccc2)n1C` — what was its survival at 336 h?
70

----------
experiment: AUC(0 to t) in Sprague-Dawley rat at 4 mg/kg, iv by LC-MS/MS analysis; format: ADME, organism-based; parameters: dose 4 mg/kg; conditions: in vivo
measuredQuantity: AUC(0-t) (ng·h/mL)
Numbers only; they are read as ng·h/mL.

Dear colleague, I am looking for the recorded AUC(0-t) of the following molecule: `Cc1c(C(=O)Nc2ccc(Oc3ccnc(Nc4cccc(N5CCOCC5)c4)n3)cc2)c(=O)n(-c2ccccc2)n1C`
8220

----------
assay: Half life in Sprague-Dawley rat at 20 mg/kg, po by LC-MS/MS analysis; assay type: ADME, organism-based; details: in vivo
measuredQuantity: half-life (h)
Supply the numeric figure in h, leaving out any unit text.

For the compound `Cc1c(C(=O)Nc2ccc(Oc3ccnc(Nc4cccc(N5CCOCC5)c4)n3)cc2)c(=O)n(-c2ccccc2)n1C` , what half-life is on record?
9.04

----------
assay: Oral bioavailability in Sprague-Dawley rat at 20 mg/kg by LC-MS/MS analysis; assay type: ADME, organism-based; details: in vivo
measuredQuantity: bioavailability (%)
Write the value in % as a bare number.

Please look up its bioavailability: `Cc1c(C(=O)Nc2ccc(Oc3ccnc(Nc4cccc(N5CCOCC5)c4)n3)cc2)c(=O)n(-c2ccccc2)n1C`
59.3

----------
system: PC-3; experiment: cells; details: Homo sapiens
Under this convention, 1 denotes IC50 strictly below 3 µM and 0 denotes IC50 at or above 3 µM.

Worked set:
INSERT INTO measurements (chemsmiles, assignedclass) VALUES
  ('O=C(Nc1ccc(F)cc1)C1(C(=O)Nc2ccc(Oc3ccnc(Nc4cccc(N5CCOCC5)c4)c3)cc2)CC1', 0),
  ('CN1CCN(c2cccc(Nc3nccc(Oc4ccc(NC(=O)C5(C(=O)Nc6ccc(F)cc6)CC5)cc4)n3)c2)CC1', 1),
  ('O=C(Nc1ccc(F)cc1)C1(C(=O)Nc2ccc(Oc3cc(Nc4cccc(N5CCOCC5)c4)ncn3)c(F)c2)CC1', 0),
  ('Cc1c(C(=O)Nc2ccc(Oc3ccnc(Nc4cccc(N5CCOCC5)c4)n3)cc2)c(=O)n(-c2ccccc2)n1C', 1),
  ('O=C(Nc1ccc(F)cc1)C1(C(=O)Nc2ccc(Oc3ccnc(Nc4cccc(N5CCOCC5)c4)n3)c(F)c2)CC1', 1);

# check: IC50 < 3 µM for `CNC(=O)c1cccc(Nc2nccc(Oc3ccc(NC(=O)C4(C(=O)Nc5ccc(F)cc5)CC4)cc3)n2)c1`
1

Determine whether this compound shows IC50 lower than 3 µM (ties excluded): `O=C1CCCc2cc(Nc3nccc(Oc4ccc(NC(=O)C5(C(=O)Nc6ccc(F)cc6)CC5)cc4)n3)ccc2N1`
1

Say whether its IC50 is strictly beneath 3 µM. Entry: `Cc1c(C(=O)Nc2ccc(Oc3ccnc(Nc4cccc(N5CCOCC5)c4)n3)c(F)c2)c(=O)n(-c2ccccc2)n1C`
1

Item `O=C(Nc1ccc(F)cc1)C1(C(=O)Nc2ccc(Oc3ccnc(Nc4cccc(N5CCOCC5)c4)n3)cc2)CC1` : IC50 beneath 3 µM, strictly?
1

----------
assay: Acute toxicity in ICR mouse assessed as animal survival at 600 mg/kg, po measured on day 14 (reference value: 100%); assay type: organism-based; conditions: in vivo, time 14 day
measuredQuantity: survival at 336 h (%)
API: value field is a number in %; no unit string.

Need survival at 336 h, item `Cc1c(C(=O)Nc2ccc(Oc3ccnc(Nc4cccc(N5CCOCC5)c4)n3)cc2)c(=O)n(-c2ccccc2)n1C`
100

----------
assay: Acute toxicity in ICR mouse assessed as animal survival at 1200 mg/kg, po measured on day 14 (reference value: 100%); assay type: organism-based; conditions: in vivo, time 14 day
measuredQuantity: survival at 336 h (%)
Write down the numeric answer in % and omit the unit.

Endpoint output: survival at 336 h of `Cc1c(C(=O)Nc2ccc(Oc3ccnc(Nc4cccc(N5CCOCC5)c4)n3)cc2)c(=O)n(-c2ccccc2)n1C` . Value?
100

----------
assay: Acute toxicity in ICR mouse assessed as animal survival at 1000 mg/kg, po measured on day 14 (reference value: 100%); format: organism-based; conditions: in vivo, time 14 day
measuredQuantity: survival at 336 h (%)
Numeric answer only, unit % assumed.

Which survival at 336 h value belongs to `Cc1c(C(=O)Nc2ccc(Oc3ccnc(Nc4cccc(N5CCOCC5)c4)n3)cc2)c(=O)n(-c2ccccc2)n1C` ?
100

----------
assay: Half life in Sprague-Dawley rat at 4 mg/kg, iv by LC-MS/MS analysis; format: ADME, organism-based; details: in vivo
measuredQuantity: half-life (h)
Numeric only. Scale: h

Fill blank: measured half-life of the molecule `Cc1c(C(=O)Nc2ccc(Oc3ccnc(Nc4cccc(N5CCOCC5)c4)n3)cc2)c(=O)n(-c2ccccc2)n1C` is ____.
8.9

----------
molecular target: Hepatocyte growth factor receptor (Homo sapiens, UniProt P08581); assay: Inhibition of c-MET kinase (unknown origin) using poly(Glu:Tyr)(4:1) as substrate by ELISA
Sequence (P08581 whole entry): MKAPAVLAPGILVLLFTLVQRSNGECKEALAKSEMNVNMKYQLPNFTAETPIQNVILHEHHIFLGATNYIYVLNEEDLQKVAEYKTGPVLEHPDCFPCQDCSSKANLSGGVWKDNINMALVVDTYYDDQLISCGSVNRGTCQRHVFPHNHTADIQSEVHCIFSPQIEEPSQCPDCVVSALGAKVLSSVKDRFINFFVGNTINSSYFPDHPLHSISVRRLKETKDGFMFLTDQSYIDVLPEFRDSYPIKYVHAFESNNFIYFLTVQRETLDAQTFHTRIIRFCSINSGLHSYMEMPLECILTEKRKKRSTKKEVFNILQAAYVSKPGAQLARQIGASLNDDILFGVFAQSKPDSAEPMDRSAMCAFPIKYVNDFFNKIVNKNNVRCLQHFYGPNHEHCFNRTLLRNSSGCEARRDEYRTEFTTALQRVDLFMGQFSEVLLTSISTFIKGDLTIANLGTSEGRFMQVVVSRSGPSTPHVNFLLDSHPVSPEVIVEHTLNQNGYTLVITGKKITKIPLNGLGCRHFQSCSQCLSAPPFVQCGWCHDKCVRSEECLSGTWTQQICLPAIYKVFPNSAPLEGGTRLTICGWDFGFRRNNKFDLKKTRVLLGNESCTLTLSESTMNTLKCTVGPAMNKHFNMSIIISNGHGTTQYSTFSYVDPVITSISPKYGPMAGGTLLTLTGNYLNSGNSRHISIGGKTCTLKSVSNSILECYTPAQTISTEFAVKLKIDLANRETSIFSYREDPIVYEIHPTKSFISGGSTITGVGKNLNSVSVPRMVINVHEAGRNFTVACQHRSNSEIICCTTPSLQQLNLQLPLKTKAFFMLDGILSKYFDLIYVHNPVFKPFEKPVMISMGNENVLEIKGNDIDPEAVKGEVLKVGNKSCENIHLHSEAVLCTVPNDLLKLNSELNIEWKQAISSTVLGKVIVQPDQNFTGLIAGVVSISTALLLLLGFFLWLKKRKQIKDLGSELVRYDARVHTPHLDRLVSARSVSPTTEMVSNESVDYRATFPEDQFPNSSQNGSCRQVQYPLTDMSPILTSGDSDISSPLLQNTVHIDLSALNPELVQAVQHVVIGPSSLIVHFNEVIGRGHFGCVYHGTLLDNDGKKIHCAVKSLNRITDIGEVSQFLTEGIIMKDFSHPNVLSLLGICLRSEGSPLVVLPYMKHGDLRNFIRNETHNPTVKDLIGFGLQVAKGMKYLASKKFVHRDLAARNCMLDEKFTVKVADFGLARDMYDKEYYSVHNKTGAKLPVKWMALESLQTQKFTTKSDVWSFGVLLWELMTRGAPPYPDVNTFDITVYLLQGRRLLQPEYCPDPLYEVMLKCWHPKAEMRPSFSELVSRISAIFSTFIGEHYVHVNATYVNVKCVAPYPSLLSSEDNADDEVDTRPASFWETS
measuredQuantity: IC50

Record excerpt, results attached:
INSERT INTO assay_data (chemsmiles, measuredquantity, reported) VALUES
  ('O=C(Nc1ccc(Oc2ccnc(Nc3cccc(N4CCOCC4)c3)n2)cc1)c1ccccc1Nc1ccc(F)cc1', 'IC50', '> 1000 nM'),
  ('COC(=O)c1ccc(Nc2nccc(Oc3ccc(NC(=O)C4(C(=O)Nc5ccc(F)cc5)CC4)cc3)n2)nc1', 'IC50', '> 2000 nM'),
  ('COc1cc(C(=O)NCC2CC2)ccc1Nc1nccc(Oc2ccc(NC(=O)C3(C(=O)Nc4ccc(F)cc4)CC3)cc2)n1', 'IC50', '> 2000 nM');

Query compound follows.
Give its IC50 value. Item: `O=C(Nc1ccc(F)cc1)c1ccccc1Nc1ccc(Oc2ccnc(Nc3cccc(CN4CCOCC4)c3)n2)cc1`
> 1000 nM

----------
assay: Acute toxicity in ICR mouse assessed as animal survival at 800 mg/kg, po measured on day 14 (reference value: 100%); type: organism-based; details: in vivo, time 14 day
measuredQuantity: survival at 336 h (%)
Write the number in % without appending the unit.

State the recorded survival at 336 h for this entry: `Cc1c(C(=O)Nc2ccc(Oc3ccnc(Nc4cccc(N5CCOCC5)c4)n3)cc2)c(=O)n(-c2ccccc2)n1C`
100
